Data provenance: patent US20240294661A1

Target: membrane-bound tissue factor (TF) on cells (human, UniProt P13726 33-295)
Assay: cell-based or functional assay
ENDPOINT_LABEL: % kill at 10 µg/mL, NCI-H441 cells, ADC killing assay (%)

>>> reading("HuMab-TF-098-mcMMAF (antibody, IgG1, V domains shown, mcMMAF drug-linker alkylated to cysteines of the reduced antibody (positions not given), DAR 4.0 by RP-HPLC, 3.9 by HIC) VH: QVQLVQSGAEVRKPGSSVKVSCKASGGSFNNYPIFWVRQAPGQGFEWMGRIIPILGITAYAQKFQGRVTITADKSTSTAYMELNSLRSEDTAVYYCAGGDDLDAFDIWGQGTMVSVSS VL: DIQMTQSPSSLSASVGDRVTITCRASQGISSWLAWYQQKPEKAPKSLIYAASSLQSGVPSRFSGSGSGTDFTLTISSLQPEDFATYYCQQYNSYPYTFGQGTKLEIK")
63
>>> reading("HuMab-TF-111-mcMMAF (antibody, IgG1, V domains shown, mcMMAF drug-linker alkylated to cysteines of the reduced antibody (positions not given), DAR 4.1 by RP-HPLC, 4.2 by HIC) VH: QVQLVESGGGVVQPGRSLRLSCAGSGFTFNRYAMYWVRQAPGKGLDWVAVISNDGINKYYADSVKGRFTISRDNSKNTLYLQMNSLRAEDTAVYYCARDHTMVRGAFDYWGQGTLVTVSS VL: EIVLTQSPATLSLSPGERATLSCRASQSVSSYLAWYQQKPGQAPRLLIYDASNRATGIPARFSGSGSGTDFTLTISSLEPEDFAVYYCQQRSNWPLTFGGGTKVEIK")
62
>>> reading("HuMab-TF-011-vcMMAE (antibody, IgG1, V domains shown, vcMMAE drug-linker alkylated to cysteines of the reduced antibody (positions not given), DAR 3.9 by RP-HPLC, 3.9 by HIC) VH: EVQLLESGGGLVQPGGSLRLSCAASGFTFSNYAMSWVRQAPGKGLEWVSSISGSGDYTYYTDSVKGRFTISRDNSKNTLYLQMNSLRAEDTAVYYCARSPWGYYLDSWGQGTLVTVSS VL: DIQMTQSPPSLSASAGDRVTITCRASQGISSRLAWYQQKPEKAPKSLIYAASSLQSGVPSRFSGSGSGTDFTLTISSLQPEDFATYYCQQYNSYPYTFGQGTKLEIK")
60
